Where do the numbers come from? From patent US10138233B2.

tested.target: FSHR (Homo sapiens, UniProt P23945)
Construct: expressed in transfected cells; host or cells: CHO cells, clone Cho-FSHR-LUC-1-1-43
Sequence (P23945 18-695): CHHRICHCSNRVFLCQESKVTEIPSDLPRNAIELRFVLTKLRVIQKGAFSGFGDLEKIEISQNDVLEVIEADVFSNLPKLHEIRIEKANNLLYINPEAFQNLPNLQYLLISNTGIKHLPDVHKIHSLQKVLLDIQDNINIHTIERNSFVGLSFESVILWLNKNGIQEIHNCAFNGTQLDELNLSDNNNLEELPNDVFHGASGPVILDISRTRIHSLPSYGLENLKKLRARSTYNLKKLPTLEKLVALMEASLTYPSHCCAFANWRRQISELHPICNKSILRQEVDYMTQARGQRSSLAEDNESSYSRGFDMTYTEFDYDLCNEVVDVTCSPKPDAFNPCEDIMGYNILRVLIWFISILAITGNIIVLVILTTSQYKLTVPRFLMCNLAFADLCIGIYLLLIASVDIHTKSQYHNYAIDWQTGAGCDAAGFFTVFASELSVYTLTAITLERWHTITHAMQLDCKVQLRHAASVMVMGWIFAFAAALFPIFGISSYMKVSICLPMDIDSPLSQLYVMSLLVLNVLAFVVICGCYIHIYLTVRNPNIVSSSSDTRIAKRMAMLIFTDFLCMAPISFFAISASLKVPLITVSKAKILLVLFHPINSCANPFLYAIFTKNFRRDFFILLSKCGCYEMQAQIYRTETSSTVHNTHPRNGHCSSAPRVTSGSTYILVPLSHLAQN
method.description: EC50 of cyclic AMP production in CHO FSHR cells + EC20 FSH (Assay A)
Assay type: cell-based
conditions: CHO-FSHR-LUC cells, in presence of EC20 FSH, cAMP HTRF, 1 h 37° C.
pEC50: −log10 of the molar value.
measure: pEC50

Value lookup for pEC50; key = COc1cc2c(cc1OC(C)C)-n1c(-c3ccc(C)s3)nc(C(=O)N3CCOCC3(C)C)c1CC2
> 7.00

Now the compound COc1cc2c(cc1CC(C)C)-n1c(C3CCOC3)nc(C(=O)N(C)C(C)(C)C)c1CC2 (stereo not drawn)
5.30 to 6.00

Repeat with COc1cc2c(cc1OC(C)C)-n1c(-c3cnc(C)s3)nc(C(=O)N(C)C(C)(C)C)c1CC2
5.30 to 6.00

Quick one: COc1cc2c(cc1CC(C)C)-n1c(-c3cccs3)nc(C(=O)N(C)CCN3CCOC3=O)c1CC2
> 7.00

Same thing, different compound: COc1cc2c(cc1OC(C)C)-n1c(-c3ccn(C)n3)nc(C(=O)N3CCOCC3(C)C)c1CC2
< 5.30

And the next one, COc1cc2c(cc1OC)-n1c(-c3ccsc3)nc(C(=O)N(C)C(C)(C)C)c1CC2 ?
6.00 to 7.00

Also need COc1cc2c(cc1OC(C)C)-n1c(C3=CCCC3)nc(C(=O)N3CCOCC3(C)C)c1CC2 , thanks.
6.00 to 7.00

Try the compound [2H]C([2H])([2H])N(C(=O)c1nc(-c2cccs2)n2c1CCc1cc(OC)c(-c3ccn(C)n3)cc1-2)C1(C)COC1
6.00 to 7.00

Same again, this time with COC/C=C/c1nc(C(=O)N2CCOCC2(C)C)c2n1-c1cc(OC(C)C)c(OC)cc1CC2
5.30 to 6.00

Would you kindly repeat that for [2H]C([2H])([2H])Oc1cc2c(cc1CC(C)C)-n1c(-c3cccs3)nc(C(=O)N(C)C(C)(C)C)c1CC2 ?
> 7.00

Another compound to look at: [2H]C([2H])([2H])N(CCN(C(=O)c1nc(-c2cccs2)n2c1CCc1cc(OC)c(CC(C)C)cc1-2)C([2H])([2H])[2H])C(C)=O
6.00 to 7.00

# repeat for COc1cc2c(cc1OC(C)C)-n1c(-c3cncnc3)nc(C(=O)N3CCOCC3(C)C)c1CC2
6.00 to 7.00

How about this compound: COc1cc2c(cc1CC(C)C)-n1c(-c3cc[nH]c3)nc(C(=O)N3CCOCC3(C)C)c1CC2
6.00 to 7.00

Now consider COc1cc2c(cc1OC(C)C)-n1c(-c3cccs3)nc(C(=O)NC3(C)COC3)c1CO2 and answer again.
5.30 to 6.00

Another compound to look at: COc1cc2c(cc1-c1ccn(C)n1)-n1c(-c3ccn(C)c3)nc(C(=O)N3CCOCC3(C)C)c1CC2
< 5.30
